# Lookup of reported 1/Ki*1000 keyed by entry
- target: BhorOBPm2 (Batocera horsfieldi, UniProt D4P5A8)
- Construct: antennal cDNA, ORF 435 bp, 145 residues printed incl; 21-residue signal peptide; reverse primer encodes ETFIFF-stop
- Sequence (D4P5A8 entry or part of it): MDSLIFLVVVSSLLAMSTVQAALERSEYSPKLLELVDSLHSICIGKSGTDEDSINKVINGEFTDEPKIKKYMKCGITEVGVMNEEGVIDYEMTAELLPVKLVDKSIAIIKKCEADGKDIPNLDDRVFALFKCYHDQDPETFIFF
- experimental.protocol: 1-NPN fluorescence competition binding
- details: pH 7.4, 30 mM Tris-HCl, room temperature, 2 μM protein, 2 μM 1-NPN

{"compound.string": "CCCCCCCCCCCCC", "target": "BhorOBPm2 (Batocera horsfieldi, UniProt D4P5A8)", "1/Ki*1000": "262.09 1/Ki(uM)*1000"}
{"compound.string": "CCCCCCCCCCCCCCCCCCCCCCCCC", "target": "BhorOBPm2 (Batocera horsfieldi, UniProt D4P5A8)", "1/Ki*1000": "1.89 1/Ki(uM)*1000"}
{"compound.string": "CCCCCCCCCC=O", "target": "BhorOBPm2 (Batocera horsfieldi, UniProt D4P5A8)", "1/Ki*1000": "102.21 1/Ki(uM)*1000"}
{"compound.string": "CCCCCCCCCCCCCC", "target": "BhorOBPm2 (Batocera horsfieldi, UniProt D4P5A8)", "1/Ki*1000": "94.91 1/Ki(uM)*1000"}
{"compound.string": "CCCCCCCC=O", "target": "BhorOBPm2 (Batocera horsfieldi, UniProt D4P5A8)", "1/Ki*1000": "54.09 1/Ki(uM)*1000"}

Lab note: CCCCCCCCC=O gave 1/Ki*1000 of 50.40 1/Ki(uM)*1000

Lab note: CCCCCCCCCCCCCCCCCCCCCCCCCCC gave 1/Ki*1000 of 45.56 1/Ki(uM)*1000

Lab note: CCCCCCCCCCCC(C)=O gave 1/Ki*1000 of 353.05 1/Ki(uM)*1000
